# experimental target: 11-beta-hydroxysteroid dehydrogenase type 2 (Homo sapiens, UniProt P80365)
# Sequence (P80365 whole entry): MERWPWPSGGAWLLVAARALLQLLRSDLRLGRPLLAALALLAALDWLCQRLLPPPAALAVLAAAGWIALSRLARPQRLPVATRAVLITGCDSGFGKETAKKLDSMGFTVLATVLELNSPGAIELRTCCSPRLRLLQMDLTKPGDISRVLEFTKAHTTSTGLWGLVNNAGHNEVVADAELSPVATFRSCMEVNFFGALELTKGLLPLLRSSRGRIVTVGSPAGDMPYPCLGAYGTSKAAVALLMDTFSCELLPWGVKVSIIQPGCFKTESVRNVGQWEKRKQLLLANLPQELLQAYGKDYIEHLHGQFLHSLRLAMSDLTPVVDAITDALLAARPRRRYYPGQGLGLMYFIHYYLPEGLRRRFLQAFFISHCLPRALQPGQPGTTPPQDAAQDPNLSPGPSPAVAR
pKi: −log10 of the molar value.
experimental readout: pKi

Exam item: # get_value(readout='pKi', item= "CCC1(CC)OC(NC2CCCCCCC2)=NC1=O" )
Marked response: < 5.00

---

This listing pairs compounds with measured microsomal CLint.
# protocol text: Intrinsic clearance in rat liver microsomes
# Type: ADME, Microsome
# value in µL/min/mg; strip the unit string

Worked set:
• CCC1(CC)OC(NC23CC4CC(CC(O)(C4)C2)C3)=NC1=O = 5
• CCC1(CC)OC(NC23CC4CC(CC(C4)C2)C3)=NC1=O = 108
• CC(C)C1(C)OC(N[C@@H](C)c2ccccc2C(F)(F)F)=NC1=O (mixture of isomers) = 15
• CC(C)C1(C)OC(NC2C3CC4CC(C3)CC2C4)=NC1=O (centres undefined) = 81
• CC(C)C1(C)OC(NC2CCCCCC2)=NC1=O (centres undefined) = 52

Exam item: If you can, please state the reported microsomal CLint value of "O=C1N=C(NC23CC4CC(CC(C4)C2)C3)OC12CCOCC2" .
Marked response: 28

---

# protocol text: Intrinsic clearance in rat liver microsomes
# Assay type: ADME, Microsome
Binary call on microsomal CLint with cut-off 50 µL/min/mg: strictly below means 1 (yes), and equality or higher means 0 (no).

Completed entries (count: 3):
- CC(C)C1(C)OC(NC2CCCCCCC2)=NC1=O (stereo unspecified): 0 (no)
- CC1(C(F)(F)F)OC(NC2C3CC4CC(C3)CC2C4)=NC1=O (stereo unspecified): 1 (yes)
- CCC1(CC)OC(N[C@@H](C)c2ccccc2C(F)(F)F)=NC1=O: 1 (yes)

Pending compound:
Exam item: Consider CC1(C(F)(F)F)OC(NC2CCCCCCC2)=NC1=O (stereo unspecified) . Does its microsomal CLint lie strictly below 50 µL/min/mg?
Marked response: 0 (no)

---

# protocol text: Intrinsic clearance in human liver microsomes
# Type: ADME, Microsome
experimental readout: microsomal CLint (µL/min/mg)
The answer is to be given in µL/min/mg; state only the numeric part.

In the examples that follow, each entry is paired with its recorded microsomal CLint.
• CCC1(CC)OC(NC23CC4CC(CC(C4)C2)C3)=NC1=O = 26
• O=C1N=C(NC23CC4CC(CC(C4)C2)C3)OC12CCOCC2 = 6
• CC(C)C1(C)OC(NC23CC4CC(CC(O)(C4)C2)C3)=NC1=O (stereo not given) = 3
• CCC1(CC)OC(NC23CC4CC(CC(O)(C4)C2)C3)=NC1=O = 5

Exam item: GET /values?readout=microsomal CLint&item= "O=C1N=C(NC2CCCCCCC2)OC12CCCC2"
Marked response: 9

Exam item: Please give the measured microsomal CLint for this molecule: CC(C)C1(C)OC(NC23CC4CC(CC(C4)C2)C3)=NC1=O (stereo not given)
Marked response: 20

Exam item: Which value of microsomal CLint has been reported for O=C1N=C(NC2C3CC4CC(C3)CC2C4)OC12CCCC2 (stereo not given) in the records?
Marked response: 13

Exam item: Need microsomal CLint of CC(C)C1(C)OC(NC2CCCCCC2)=NC1=O (stereo not given) , thanks.
Marked response: 5

Exam item: Sample CC1(C(F)(F)F)OC(NC2CCCCCCC2)=NC1=O (stereo not given) — what was its microsomal CLint?
Marked response: 6

Exam item: Which microsomal CLint value is on record for "C[C@H](NC1=NC(=O)C2(CCN(Cc3ccccc3)CC2)O1)c1ccccc1C(F)(F)F" ?
Marked response: 193

Exam item: Endpoint output: microsomal CLint of CC1(C(F)(F)F)OC(NC2C3CC4CC(C3)CC2C4)=NC1=O (stereo not given) . Value?
Marked response: 5

Exam item: Given the entry CC(C)C1(C)OC(NC2C3CC4CC(C3)CC2C4)=NC1=O (stereo not given) , report its measured microsomal CLint.
Marked response: 28

Exam item: Give its microsomal CLint value. Item: "CCC1(CC)OC(N[C@@H](C)c2ccccc2C(F)(F)F)=NC1=O"
Marked response: 6

Exam item: What does the record list as microsomal CLint for CC(C)C1(C)OC(NC2CCCCCCC2)=NC1=O (stereo not given) ?
Marked response: 10

Exam item: Fill blank: measured microsomal CLint of the molecule CC(C)C1(C)OC(N[C@@H](C)c2ccccc2C(F)(F)F)=NC1=O (mixture of isomers) is ____.
Marked response: 23
